Listed below: growth inhibition by drug plus 177Lu-lilotomab satetraxetan values for each entry.
system: U-2932; assay: growth inhibition by drug plus 177Lu-lilotomab satetraxetan (1 - RLU/untreated control) (fraction); higher = stronger inhibition; conditions: 10 nM; time (day): 6; 177Lu-lilotomab satetraxetan 1 ug/ml
Structures can show the parent of a compound that is named as a salt.
PROPERTY_LABEL: growth inhibition by drug plus 177Lu-lilotomab satetraxetan

{"MOLECULE": "Nc1nc(Nc2ccc(S(N)(=O)=O)cc2)nn1C(=O)c1c(F)cccc1F", "ASSAY_VALUE": 0.137}
{"MOLECULE": "COc1ccc(-c2ccc3c(N4CCOC[C@@H]4C)nc(N4CCOC[C@@H]4C)nc3n2)cc1CO", "ASSAY_VALUE": 0.253}
{"MOLECULE": "COc1ccc2c(c1)CCC1C2CCC2(C)C(NCCCCCCN3C(=O)C=CC3=O)CCC12 (stereo unspecified)", "ASSAY_VALUE": 0.161}
{"MOLECULE": "O=C(O)CCc1ccc(NCc2cccc(Oc3ccccc3)c2)cc1", "ASSAY_VALUE": 0.0671}
{"MOLECULE": "CS(=O)(=O)c1ccc(C(=O)Nc2ccc(Cl)c(-c3ccccn3)c2)c(Cl)c1", "ASSAY_VALUE": 0.219}
{"MOLECULE": "CN(C)CCCN=c1c2ccccc2n(C)c2[nH]c(=O)n(C)c(=O)c12", "ASSAY_VALUE": 0.24}
{"MOLECULE": "CCC(C)n1ncn(-c2ccc(N3CCN(c4ccc(OCC5COC(Cn6cncn6)(c6ccc(Cl)cc6Cl)O5)cc4)CC3)cc2)c1=O (stereo unspecified) [Itraconazole (Sporanox)]", "ASSAY_VALUE": 0.126}
{"MOLECULE": "CNC(=O)c1cc(Oc2ccc(NC(=O)Nc3ccc(Cl)c(C(F)(F)F)c3)c(F)c2)ccn1", "ASSAY_VALUE": 0.319}
{"MOLECULE": "Nc1nc(Cl)nc2c1ncn2[C@H]1C[C@H](O)[C@@H](CO)O1", "ASSAY_VALUE": 0.212}
{"MOLECULE": "COc1cc(Nc2ncc(F)c(Nc3ccc4c(n3)N(COP(=O)(O)O)C(=O)C(C)(C)O4)n2)cc(OC)c1OC", "ASSAY_VALUE": 0.209}
{"MOLECULE": "CC[C@@H]1C(=O)N(C)c2cnc(Nc3ccc(C(=O)NC4CCN(C)CC4)cc3OC)nc2N1C1CCCC1", "ASSAY_VALUE": 0.941}
{"MOLECULE": "CC(C)(C)c1cnc(CSc2cnc(NC(=O)C3CCNCC3)s2)o1", "ASSAY_VALUE": 0.121}
{"MOLECULE": "CC[C@H]1OC(=O)[C@H](C)[C@@H](O[C@H]2C[C@@](C)(OC)[C@@H](O)[C@H](C)O2)[C@H](C)[C@@H](O[C@@H]2O[C@H](C)C[C@H](N(C)C)[C@H]2O)[C@](C)(O)C[C@@H](C)CN(C)[C@H](C)[C@@H](O)[C@]1(C)O [Azithromycin (Zithromax)]", "ASSAY_VALUE": 0.299}
{"MOLECULE": "Oc1ccc(Nc2nc(-c3ccc(Cl)cc3)cs2)cc1", "ASSAY_VALUE": -0.00943}
{"MOLECULE": "CCCC(CCC)C(=O)O [Valproic acid sodium salt (Sodium valproate)]", "ASSAY_VALUE": 0.106}
{"MOLECULE": "CCCS(=O)(=O)Nc1ccc(F)c(C(=O)c2c[nH]c3ncc(-c4ccc(Cl)cc4)cc23)c1F", "ASSAY_VALUE": 0.0873}

* * *

system: U-2932; assay: growth inhibition by drug alone (1 - RLU/untreated control) (fraction); higher = stronger inhibition; settings: 10 nM; time (day): 4; 177Lu-lilotomab satetraxetan 0 ug/ml
Listing: growth inhibition by drug alone of selected compounds
PROPERTY_LABEL: growth inhibition by drug alone

{"ENTRY_SMILES": "Cn1cc(C2=C(c3ccc(Cl)cc3Cl)C(=O)NC2=O)c2ccccc21", "ASSAY_VALUE": 0.00823}
{"ENTRY_SMILES": "CN(C)c1ccccc1CN1CCCN(Cc2ccccc2N(C)C)C1c1ccncc1", "ASSAY_VALUE": 0.0484}
{"ENTRY_SMILES": "N#Cc1ccc(C(c2ccc(C#N)cc2)n2cncn2)cc1", "ASSAY_VALUE": -0.0615}
{"ENTRY_SMILES": "Nc1nccc(-c2ccc3noc(-c4ccc(Cl)cc4)c3c2)n1", "ASSAY_VALUE": 0.0795}
{"ENTRY_SMILES": "CCOc1ccn(-c2ccc(F)cc2)c(=O)c1C(=O)Nc1ccc(Oc2ccnc(N)c2Cl)c(F)c1", "ASSAY_VALUE": 0.12}

* * *

tested on: RIVA; test: growth inhibition by drug plus 177Lu-lilotomab satetraxetan (1 - RLU/untreated control) (fraction); higher = stronger inhibition; details: 100 nM; time (day): 3; 177Lu-lilotomab satetraxetan 0.5 ug/ml
Decide by growth inhibition by drug plus 177Lu-lilotomab satetraxetan: equal to or exceeding 0.4 means condition met, less means condition not met.

{"MOLECULE": "CN(N=O)C(=O)N[C@@H](C=O)[C@@H](O)[C@H](O)[C@H](O)CO [Streptozotocin (Zanosar)]", "GROUP_LABEL": "condition not met"}
{"MOLECULE": "O=C(O)C(=O)O.[NH-]C1CCCCC1[NH-].[Pt+2] (stereo not drawn) [Oxaliplatin (Eloxatin)]", "GROUP_LABEL": "condition met"}
{"MOLECULE": "Oc1ccc(Nc2nc(-c3ccc(Cl)cc3)cs2)cc1", "GROUP_LABEL": "condition not met"}
{"MOLECULE": "O=c1c(O)c(-c2ccc(O)c(O)c2)oc2cc(O)cc(O)c12 [Quercetin (Sophoretin)]", "GROUP_LABEL": "condition not met"}
{"MOLECULE": "CCOc1ccn(-c2ccc(F)cc2)c(=O)c1C(=O)Nc1ccc(Oc2ccnc(N)c2Cl)c(F)c1", "GROUP_LABEL": "condition met"}
{"MOLECULE": "C[C@]12CC[C@@H]3c4ccc(O)cc4C[C@@H](CCCCCCCCC[S+]([O-])CCCC(F)(F)C(F)(F)F)[C@H]3[C@@H]1CC[C@@H]2O (stereo partly drawn)", "GROUP_LABEL": "condition met"}
{"MOLECULE": "Cc1cc(Nc2cc(N3CCN(C)CC3)nc(Sc3ccc(NC(=O)C4CC4)cc3)n2)n[nH]1 [VX-680 (MK-0457, Tozasertib)]", "GROUP_LABEL": "condition met"}

* * *

tested on: RIVA; assay: growth inhibition by drug plus 177Lu-lilotomab satetraxetan (1 - RLU/untreated control) (fraction); higher = stronger inhibition; details: 100 nM; time (day): 3; 177Lu-lilotomab satetraxetan 0.5 ug/ml
Tick rule met if growth inhibition by drug plus 177Lu-lilotomab satetraxetan is 0.5 or greater. Tick rule not met if growth inhibition by drug plus 177Lu-lilotomab satetraxetan is less than 0.5.

{"MOLECULE": "CO[C@H]1C[C@@H]2CC[C@@H](C)[C@@](O)(O2)C(=O)C(=O)N2CCCC[C@H]2C(=O)O[C@H]([C@H](C)C[C@@H]2CC[C@@H](OCCO)[C@H](OC)C2)CC(=O)[C@H](C)/C=C(\\C)[C@@H](O)[C@@H](OC)C(=O)[C@H](C)C[C@H](C)/C=C/C=C/C=C/1C [Everolimus (RAD001)]", "GROUP_LABEL": "rule met"}
{"MOLECULE": "Nc1nccc(-c2ccc3noc(-c4ccc(Cl)cc4)c3c2)n1", "GROUP_LABEL": "rule not met"}
{"MOLECULE": "COc1cc2nccc(Oc3ccc(NC(=O)NC4CC4)c(Cl)c3)c2cc1C(N)=O", "GROUP_LABEL": "rule not met"}
{"MOLECULE": "CO[C@H]1C[C@@H]2CC[C@@H](C)[C@@](O)(O2)C(=O)C(=O)N2CCCC[C@H]2C(=O)O[C@H]([C@H](C)C[C@@H]2CC[C@@H](O)[C@H](OC)C2)CC(=O)[C@H](C)/C=C(\\C)[C@@H](O)[C@@H](OC)C(=O)[C@H](C)C[C@H](C)/C=C/C=C/C=C/1C [Rapamycin (Sirolimus)]", "GROUP_LABEL": "rule met"}

* * *

test system: RIVA; test: growth inhibition by drug alone (1 - RLU/untreated control) (fraction); higher = stronger inhibition; conditions: 10 nM; time (day): 5; 177Lu-lilotomab satetraxetan 0 ug/ml
PROPERTY_LABEL: growth inhibition by drug alone

{"COMPOUND": "O=C(O[C@@H]1Cc2c(O)cc(O)cc2O[C@@H]1c1cc(O)c(O)c(O)c1)c1cc(O)c(O)c(O)c1 [(-)-Epigallocatechin gallate]", "ASSAY_VALUE": -0.418}
{"COMPOUND": "O=C(Nc1ccccc1-c1cn2c(CN3CCNCC3)csc2n1)c1cnc2ccccc2n1", "ASSAY_VALUE": 0.0591}
{"COMPOUND": "O=c1[nH]cc(F)c(=O)[nH]1", "ASSAY_VALUE": -0.384}
{"COMPOUND": "CC1=C(/C=C/C(C)=C/C=C/C(C)=C/C(=O)Nc2ccc(O)cc2)C(C)(C)CCC1 [Fenretinide]", "ASSAY_VALUE": -0.13}
{"COMPOUND": "Cc1[nH]c(/C=C2\\C(=O)Nc3ccc(S(=O)(=O)Cc4c(Cl)cccc4Cl)cc32)c(C)c1C(=O)N1CCC[C@@H]1CN1CCCC1", "ASSAY_VALUE": -0.228}
{"COMPOUND": "Nc1nc(Nc2ccc(S(N)(=O)=O)cc2)nn1C(=O)c1c(F)cccc1F", "ASSAY_VALUE": -0.071}
{"COMPOUND": "Nc1nc(OCc2cc(Br)cs2)c2[nH]cnc2n1", "ASSAY_VALUE": -0.118}
{"COMPOUND": "CCN(CC)CCCCNc1ncc2cc(-c3cc(OC)cc(OC)c3)c(NC(=O)NC(C)(C)C)nc2n1", "ASSAY_VALUE": -0.227}
{"COMPOUND": "CC(=O)Nc1cccc(-n2c(=O)n(C3CC3)c(=O)c3c(Nc4ccc(I)cc4F)n(C)c(=O)c(C)c32)c1", "ASSAY_VALUE": -0.0739}
{"COMPOUND": "Fc1cc(-c2cccc3ncc(-c4cnn(C5CCNCC5)c4)nc23)cc(F)c1CN1CCOCC1", "ASSAY_VALUE": -0.0745}
{"COMPOUND": "O=C(O)C(Cc1c[nH]c2ccccc12)N1C(=O)c2ccccc2C1=O (stereo not given)", "ASSAY_VALUE": -0.249}
{"COMPOUND": "Cc1ccc(Nc2nccc(N(C)c3ccc4c(C)n(C)nc4c3)n2)cc1S(N)(=O)=O", "ASSAY_VALUE": -0.0206}
{"COMPOUND": "Cc1ccc(C(=O)Nc2ccc(CN3CCN(C)CC3)c(C(F)(F)F)c2)cc1C#Cc1cnc2cccnn12", "ASSAY_VALUE": -0.275}
{"COMPOUND": "Cc1ccc(F)c(NC(=O)Nc2ccc(-c3cccc4[nH]nc(N)c34)cc2)c1", "ASSAY_VALUE": -0.157}
{"COMPOUND": "COc1ccc(CCN2CCN(CCCc3ccccc3)CC2)cc1OC", "ASSAY_VALUE": -0.542}

Source of measurements: the supplement of paper PMC6897291
